Reported ED50 values for the following compounds.
System: antigen-induced bronchospasm
Test: Inhibitory effect on antigen-induced bronchospasm (anti-asthmatic action)
Type: in vivo
Details: Cavia porcellus, iv; ovalbumin-sensitized Hartley male guinea pig; intravenously 10 minutes before 0.2 mg/kg OA i.v.; Konzett-Roessler method; read-out: Action for suppressing antigen-induced bronchospasms ED50
# number only, unit mg/kg dropped from output

- COc1ccc(C2CNNC(=O)C2)cc1OC1CCCC1 (stereo not shown): 2.1
- COc1ccc(C2C=NNC(=O)C2)cc1OCC1CC1 (stereo not shown): 0.074
- CCCCOc1cc(C2C=NN(C)C(=O)C2)ccc1OC (stereo not shown): 0.53

Problem: Return ED50 (reported value) for this compound: COc1ccc(C2C=NN(Cc3ccccc3)C(=O)C2)cc1OC1CCCC1 (stereo not shown)
Solution: 3.2

Problem: Return ED50 (reported value) for this compound: CCCCOc1cc(C2C=NNC(=O)C2)ccc1OC (stereo not shown)
Solution: 1.4

Problem: Return ED50 (reported value) for this compound: COc1ccc(C2C=NN(C)C(=O)C2)cc1OCC1(C)CC1 (stereo not shown)
Solution: 2.37

Problem: Return ED50 (reported value) for this compound: COc1ccc(C2C=NNC(=O)C2)cc1OC1CCCC1 (stereo not shown)
Solution: 0.4

----------
Test system: antigen-induced bronchospasm
Experiment: Inhibitory effect on antigen-induced bronchospasm (anti-asthmatic action)
Format: in vivo
Conditions: Cavia porcellus, iv; ovalbumin-sensitized Hartley male guinea pig; intravenously 10 minutes before 0.2 mg/kg OA i.v.; Konzett-Roessler method; read-out: Action for suppressing antigen-induced bronchospasms ED50
Reported ED50 values for the following molecules.
# number only, unit mg/kg dropped from output

Solved cases (3 shown):
* COc1ccc(C2C=NN(C)C(=O)C2)cc1OCC1CC1 (centres unmarked) | 0.12
* COc1ccc(C2C=NNC(=O)C2)cc1OCC(C)C (centres unmarked) | 1.05
* COc1ccc(C2C=NN(C)C(=O)C2)cc1OCC(C)C (centres unmarked) | 0.97

Problem: Return ED50 (reported value) for this molecule: COc1ccc(C2C=NNC(=O)C2)cc1OCCc1ccccc1 (centres unmarked)
Solution: 4.2

Problem: Return ED50 (reported value) for this molecule: COc1ccc(C2C=NNC(=O)C2)cc1OCC1(C)CC1 (centres unmarked)
Solution: 0.82
